- System: MS2 coat protein
- TEST_SUMMARY: apparent KD of MS2 coat protein; designed switch direction (-1 OFF switch, 1 ON switch): 1; higher = weaker reporter binding
- PROTOCOL_CONDITIONS: input ligand: FMN 200 uM
ENDPOINT_LABEL: apparent KD of MS2 coat protein

Some solved entries appear below for comparison.
RESIDUE_CODES	apparent KD of MS2 coat protein
GCUACCAAAGAAGCCUACAUGAGGAUCACCCAUGUAUGUAGGCAGGAUAUCGAUUGCAAAGCGAUCGAGAAGGGCUUAGGUAGC [Mat - Same State NG 3 - JL Mod - D92] (Eterna round: R96, puzzle: Same State NG 3)	68.9 nM
GGUCCAUCAUGAGGAUAUGGCACCUUAUUGGUGCCAGAAGGCAUGUCUAUAGACAUGAGGAUCACCCAUGUUAUAAAUUGGACC [Eli NG1ss - 92] (Eterna round: R96, puzzle: Same State NG 1)	20 nM
GGAGCCAAGGCAGGAUAUUCAUACUAAUAACAUGAGGAUCACCCAUGUAAGGCCAGAAGGCCUUGGGAGAAGGGCCAUGGCUCG [Xeonanis - 13 mod3] (Eterna round: R96, puzzle: Same State NG 2)	22 nM

Please give the measured apparent KD of MS2 coat protein for this sequence: AGAUCAUGACGAGGAUAUGGUACAUGAGGAUCACCCAUGUAUGUACCACGACGCGUACGUCGAAUCCAGAAGGCGUCAUGAUCA [Mat - Same State NG 2 - JL mod - D18] (Eterna round: R96, puzzle: Same State NG 2)
21.6 nM

----------
- Tested on: MS2 coat protein
- TEST_SUMMARY: apparent KD of MS2 coat protein; designed switch direction (-1 OFF switch, 1 ON switch): -1; higher = weaker reporter binding
- PROTOCOL_CONDITIONS: Eterna round: R95; input ligand: none
The entries below come with measured apparent KD of MS2 coat protein values attached.
Give the value, in units of nM, as a plain number.

See these solved cases before continuing.
RESIDUE_CODES	ENDPOINT_LABEL	RESULT_UNIT	VALUE
AGUACUAACACGAGAGUGUUAGUACUAUAAGCUUGUGUUACAUGAGGAUCACCCAUGUCCUCAUAGGCUCGUCUUAA [Mat - Sensor v3 - Turn-off var 2 - D82] (puzzle: Sensor v3, turn-off variant 2)	apparent KD of MS2 coat protein	nM	81.4
CUGAGCAGACGAAGAUCCAACAUGAGGAUCACCCAUGUCUCAAAAGCUUUUUGCUCGUCUUAUCCUUCUCUGUUCUC [Reisedzaqu] (puzzle: Sensor v3, turn-off variant 1)	apparent KD of MS2 coat protein	nM	13

Okay, next one:
Look up apparent KD of MS2 coat protein: AAGAGUGCAGGAUAUACGUGAGAAAGGAGGAUGAGAGAAGGACAUGAGGAUCACCCAUGUAGAAGGGCAGAGAG [JR_Exclu2_Sub060] (puzzle: Exclusion 2)
76.8

----------
- System: MS2 coat protein
- TEST_SUMMARY: apparent KD of MS2 coat protein; higher = weaker reporter binding
- PROTOCOL_CONDITIONS: Eterna round: R107; input ligand: theophylline 2 mM
Lab note: class by apparent KD of MS2 coat protein, see bucket 1 (below 30 nM), bucket 2 (30 nM to below 90 nM), bucket 3 (90 nM or more)

Here are 8 sequences together with their reported answers.
RESIDUE_CODES	ASSIGNED_CLASS
GUCCGACAUGAGGAUCACCCAUGUACUGAAGGAGCGGACAAAUGUCCAGGUAGGUCGCAGCUAUAUGGUGUGGACCGAUCCGGAC [Ustius]	bucket 1
CCAUGCAGGUCGGCCGCCACUACACACAUGAGGAUCACCCAUGUAGUUACUGGGUGAAGUGGCAGUAGGACCGGGACCUGCACAC [Brourdmod20]	bucket 3
GGAGCUACGUCGGCCGCCACUAGCGGGUAUUGCGUGUACAUGAGGAUCACCCAUGUAAUACGGCCUAGGACCGGGACGUAGCUCC [Raven]	bucket 1
UGACAUUGCUCAGAUACCAGACAUGAGCAUCAGCCAUGUACCGAGAGUACAUGUUAAAGUGUCCCUUGGCAGCUGAGCAAUGUCU [Mod of Eli's TheoBX5 #AlternateMS2 v4]	bucket 3
GGUUAGGUUUUUGAUACCAGCUAUUGGUGUCAUCUGAGGAUCACCCAGGUCUUGUGUUUUAGCCCUUGGCAGCAAAAGUUUAGUC [SSTheo B #28]	bucket 3
UCCACAUGAGGAUCACCCAUGUGCCAUGAUACCAGACAUGAAAAUGUCCCUUGGCAGCAUGAGUGAGGCAUCCGAAAGGAUGCCU [Chrlice]	bucket 2
UCGCCCAGAAAGGAUUGCUGGGAUAUGGAAGGAGCGCUGAUGCCAGCAGGUAGGUCGCCAACGGACAUGAGGAUCACCCAUGUAC [Same State - Arginine A (Freestyle 6)]	bucket 1
GGCACGUACGGAAGGAGCGACUGUUCAACGUGGGUACAUGAGGAUCACCCAUGUCUCCGCAGUCAGGUAGGUCGCCGUACGUGCC [EAB NP+V+V2 #20]	bucket 1

# bin lookup: classify AGCCCGGGAGCGGCCGCCACUGGAGGCUGAGCGCGACAUGAGGAUCACCCAUGUGUGCCCGGCGUUAGGACCGGGCUCGCGUGGU [#1 Same State - Tryptophan B Attempt #23 (HarryS)] by its apparent KD of MS2 coat protein
bucket 2

Form field 'band' for GCUGCUUAGGGAAGGAGCGCUGCGGAAUUGUGGAGGACAUGAGGAUCACCCAUGUUCCUGCGGCAGGUAGGUCGCUUUGGGCAGC [#17 Exclusion - Arginine B]
bucket 2

Pick a category. Item: CUUAUAUAUACGGCCGCCACUUACUCAUGAGGUAACAACAUGAGGAUCACCCAUGUUUGAGGAUCAAGGACCGGGUAUAUAUAAG [AstrosSSTry#18]
bucket 2

Using the reported apparent KD of MS2 coat protein, which band applies to GUUAUAUCAAAAGAUGUAACAGUGGGUGAACGAGGACCGGUACGGCCGCCACUCGGACAUGAGGAUCACCCAUGUCCAUGUGAAA [AstrosExyTryA#14] ?
bucket 1

Consider AGCGGCUCGAAAGAGUCGCACUCAUGUGAAGGAGCGCCCGUAAGGGCAGGUAGGUCGCACAUGAGGAUCACCCAUGUACCUUCUA [MAT - Exclusion Arginine A - Mod of Eli - D20] . To which apparent KD of MS2 coat protein class does it belong?
bucket 3

Please report the category associated with UUAUAAGUACCGGUCCUCAGAUCCUCAUGACGAGGACCGGUACGGCCGCCACUCGAAACAUGAGGAUCACCCAUGUAAUAACAUU [Brourdmod19] , nothing else.
bucket 1

Band assignment needed for UCGCCCAGGUAGGCUUAAUGGGAUAUGGAAGGAGCGCUGAUGCCAGCAGGUAGGUCGCCAACGGACAUGAGGAUCACCCAUGUAC [Same State - Arginine A (Freestyle 4)] please.
bucket 1

Consider GCGUGGUCUGCGGCCGCCACUCAAGGAGCUACAUAGCUCCUAGACAUGAGGAUCACCCAUGUCGCGAGGACCGGGUAGAUUCUCC [Same State Typptophan B GF10] . To which apparent KD of MS2 coat protein class does it belong?
bucket 3

Any idea which band GUUAUAACAAAAGUUGUAACAGUGGGUGAACGAGGACCGGUACGGCCGCCACUCGGACAUGAGGAUCACCCAUGUCCAUGUGAAA [AstrosExyTryA#15] is in?
bucket 1

Assign a bin to AAUAUAUAGACGGCCGCCACUGGAAUUAAUACAUGAGGAUCACCCAUGUGAAGAGGAUAAUAACACAGGACCGGGUCUUCAUGUA [SS Tryp B Tesla 1.2]
bucket 3

Band assignment needed for GGGCGCGUGGACUGGCGUGCUCCGCUCCGUCGAGGACCGGUACGGCCGCCACUCGACAUGAGGAUCACCCAUGUGUGAGCUCGCG [#1 Exclusion - Tryptophan A Attempt #17 (HarryS)] please.
bucket 3

Classify this sequence: AUACAUGAGGAUCACCCAUGUAUGGAUGAAGGAGCGACCAGAGGGUCAGGUAGGUCGCAUCACAUGAGGAUCACCCAUGUAGAAA [DOUBLE!!! :-D #11]
bucket 1

Please let me know in which category the item GGGUACAUCGCGGCCGCCACUUAUGUAAAUACAUGAGGAUCACCCAUGUCGAUGGAGACAUCGGAAAGGACCGGGUGAUGUACCG belongs.
bucket 3
